I'd be grateful if you could share measured koff for these entries.
target: T1, Her2 ECD (amino acids 1 to 629 of matured HER2 with C-terminal avi-tag and His-tag) (human, UniProt P04626 23-652)
T1 construct: also called purified Her2
assay notes: SPR, Ab captured, Her2 analyte;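 further: ProteOn XPR36 SPR, rate constants from simultaneous fit of association and dissociation sensorgrams to a 1:1 Langmuir model, buffer-channel referenced, KD taken as koff/kon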

Looking up Pertuzumab HC x Pertuzumab (Tras.L3) T94Y LC (antibody, V domains shown) VH: EVQLVESGGGLVQPGGSLRLSCAASGFTFTDYTMDWVRQAPGKGLEWVADVNPNSGGSIYNQRFKGRFTLSVDRSKNTLYLQMNSLRAEDTAVYYCARNLGPSFYFDYWGQGTLVTVSS VL: DIQMTQSPSSLSASVGDRVTITCKASQDVSIGVAWYQQKPGKAPKLLIYSASYRYTGVPSRFSGSGSGTDFTLTISSLQPEDFATYYCQQHYTYPPTFGQGTKVEIK , I see its koff listed as 0.00063 s⁻¹

Entry Pertuzumab HC x Pertuzumab (Tras.L3) I31T LC (antibody, V domains shown) VH: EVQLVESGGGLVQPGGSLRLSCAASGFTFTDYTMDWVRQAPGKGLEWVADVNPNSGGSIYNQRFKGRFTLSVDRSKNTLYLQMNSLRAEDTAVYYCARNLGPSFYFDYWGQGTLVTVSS VL: DIQMTQSPSSLSASVGDRVTITCKASQDVSTGVAWYQQKPGKAPKLLIYSASYRYTGVPSRFSGSGSGTDFTLTISSLQPEDFATYYCQQHYTTPPTFGQGTKVEIK , koff reported as 0.00175 s⁻¹
